biological target: alcohol dehydrogenase from Pichia pastoris (PPADH) (Komagataella phaffii, UniProt C4R4L0); assay: photometric assay, reduction of aldehydes and ketones by purified PPADH (NADPH, 340 nm); assay type: biochemical, Pichia pastoris GS 115; conditions: 38.6 U/mg with benzaldehyde set to 100%
Sequence (C4R4L0 entry or part of it): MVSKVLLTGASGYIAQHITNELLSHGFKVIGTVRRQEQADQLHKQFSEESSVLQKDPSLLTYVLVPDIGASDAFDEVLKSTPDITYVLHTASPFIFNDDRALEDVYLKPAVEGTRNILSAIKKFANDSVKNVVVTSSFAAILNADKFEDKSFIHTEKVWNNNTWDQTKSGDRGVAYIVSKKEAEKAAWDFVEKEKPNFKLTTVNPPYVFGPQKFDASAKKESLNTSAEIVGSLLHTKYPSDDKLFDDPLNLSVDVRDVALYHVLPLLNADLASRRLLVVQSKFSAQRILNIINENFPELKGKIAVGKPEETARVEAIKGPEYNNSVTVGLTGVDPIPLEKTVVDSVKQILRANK
Consider the following molecules and their measured relative activity readings.
PROPERTY MEASURED: relative activity (%)

molecule=O=C(c1ccccc1)C(F)(F)F tested_system="alcohol dehydrogenase from Pichia pastoris (PPADH) (Komagataella phaffii, UniProt C4R4L0)" property_measured="relative activity" unit_string=% measured_value=0.3
molecule="CCOC(=O)C(Cl)C(C)=O (centres unmarked)" tested_system="alcohol dehydrogenase from Pichia pastoris (PPADH) (Komagataella phaffii, UniProt C4R4L0)" property_measured="relative activity" unit_string=% measured_value=14.7
molecule=CC(=O)c1ccccc1 tested_system="alcohol dehydrogenase from Pichia pastoris (PPADH) (Komagataella phaffii, UniProt C4R4L0)" property_measured="relative activity" unit_string=% measured_value=0.2
molecule=CCOC(=O)CC(=O)CCl tested_system="alcohol dehydrogenase from Pichia pastoris (PPADH) (Komagataella phaffii, UniProt C4R4L0)" property_measured="relative activity" unit_string=% measured_value=98.3
molecule=CCCC(=O)CC(=O)OCC tested_system="alcohol dehydrogenase from Pichia pastoris (PPADH) (Komagataella phaffii, UniProt C4R4L0)" property_measured="relative activity" unit_string=% measured_value=1.3
molecule=CC(C)=CCC/C(C)=C/C=O tested_system="alcohol dehydrogenase from Pichia pastoris (PPADH) (Komagataella phaffii, UniProt C4R4L0)" property_measured="relative activity" unit_string=% measured_value=46.1
molecule=CCC/C=C/C=O tested_system="alcohol dehydrogenase from Pichia pastoris (PPADH) (Komagataella phaffii, UniProt C4R4L0)" property_measured="relative activity" unit_string=% measured_value=97.2
molecule="CCCC(C)C=O (centres unmarked)" tested_system="alcohol dehydrogenase from Pichia pastoris (PPADH) (Komagataella phaffii, UniProt C4R4L0)" property_measured="relative activity" unit_string=% measured_value=248.9
molecule="CC(=O)CC(O)(c1ccccc1)C(F)(F)F (racemic)" tested_system="alcohol dehydrogenase from Pichia pastoris (PPADH) (Komagataella phaffii, UniProt C4R4L0)" property_measured="relative activity" unit_string=% measured_value=97.2
molecule=CCCCCC=O tested_system="alcohol dehydrogenase from Pichia pastoris (PPADH) (Komagataella phaffii, UniProt C4R4L0)" property_measured="relative activity" unit_string=% measured_value=73.9
molecule=CCCC=O tested_system="alcohol dehydrogenase from Pichia pastoris (PPADH) (Komagataella phaffii, UniProt C4R4L0)" property_measured="relative activity" unit_string=% measured_value=176.2
molecule="CC(C)=CCCC(C)CC=O (centres unmarked)" tested_system="alcohol dehydrogenase from Pichia pastoris (PPADH) (Komagataella phaffii, UniProt C4R4L0)" property_measured="relative activity" unit_string=% measured_value=71.9
molecule=CC(=O)CC(C)=O tested_system="alcohol dehydrogenase from Pichia pastoris (PPADH) (Komagataella phaffii, UniProt C4R4L0)" property_measured="relative activity" unit_string=% measured_value=8.5
molecule=O=Cc1ccccc1 tested_system="alcohol dehydrogenase from Pichia pastoris (PPADH) (Komagataella phaffii, UniProt C4R4L0)" property_measured="relative activity" unit_string=% measured_value=100.0
